system_name: Rat M4 (Rattus norvegicus, UniProt P08485)
Construct: expressed in transfected cells; host or cells: CHO-K1 (ATCC), stably expressing M4 and Gqi5
Sequence (P08485 whole entry): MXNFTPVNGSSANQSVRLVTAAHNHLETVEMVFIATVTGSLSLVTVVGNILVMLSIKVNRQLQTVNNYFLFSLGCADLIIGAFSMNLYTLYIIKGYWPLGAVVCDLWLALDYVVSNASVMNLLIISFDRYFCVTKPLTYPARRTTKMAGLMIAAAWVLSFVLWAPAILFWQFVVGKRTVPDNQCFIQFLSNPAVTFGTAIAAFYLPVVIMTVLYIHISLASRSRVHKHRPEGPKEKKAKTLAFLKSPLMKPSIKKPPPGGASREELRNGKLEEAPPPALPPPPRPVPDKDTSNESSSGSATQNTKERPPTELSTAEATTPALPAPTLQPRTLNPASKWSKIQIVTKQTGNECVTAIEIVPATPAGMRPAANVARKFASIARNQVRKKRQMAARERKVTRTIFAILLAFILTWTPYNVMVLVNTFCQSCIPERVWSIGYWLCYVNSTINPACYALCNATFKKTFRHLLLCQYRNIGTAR
measurement_description: mAChR M4 cell-based functional calcium flux assay (rat M4/Gqi5/CHO cells)
condition_label: % ACh maximum at 30 μM
measurement_name: Emin (rat M4) (%)
I only need the number, in %, no unit after it.

Some solved cases for reference:
| molecule | numeric_result |
| --- | --- |
| Cc1ccc(/C=C/c2ccc(NCC3CC34CCN(CCC(C)(C)C)CC4)nn2)cc1 (stereo not shown) | 4 |
| CC(=O)Nc1ccc(-c2ccc(NC[C@@H]3CC34CCN(Cc3ccc(F)cc3)CC4)nn2)cc1 | 4 |
| Cc1nn(C)cc1-c1nnc(NCC2CC23CCN(CC24CC5CC(CC(C5)C2)C4)CC3)c2ccccc12 (stereo not shown) | 4 |

Kindly note the recorded Emin (rat M4) for Fc1ccc(Cl)c(-c2ccc(NC[C@@H]3CC34CCN(CC3CC5CCC3O5)CC4)nn2)c1 (stereo partly shown) , which is 4

Kindly note the recorded Emin (rat M4) for CC(CN1CCC2(CC1)CC2CNc1ccc(-c2cc(F)ccc2Cl)nn1)C(C)(C)C (stereo not shown) , which is 2.40

Kindly note the recorded Emin (rat M4) for CC(C)(C)CCN1CCC2(CC1)CC2CNc1ccc(-c2cc(F)cc(F)c2)nn1 (stereo not shown) , which is 2.09

Kindly note the recorded Emin (rat M4) for `CC(=O)Nc1ccc(-c2ccc(NC[C@@H]3CC34CCN(CC3CCCCC3)CC4)nn2)cc1` , which is 5

Kindly note the recorded Emin (rat M4) for COc1ccc(F)cc1-c1ccc(NCC2CC23CCN(CCC(C)(C)C)CC3)nn1 (stereo not shown) , which is 2.87

Kindly note the recorded Emin (rat M4) for Cc1nn(C)cc1-c1ccc(NCC2CC23CCN(C[C@H]2C[C@@H]4CC[C@H]2O4)CC3)nn1 (stereo partly shown) , which is 7.69

Kindly note the recorded Emin (rat M4) for CCCC(C)CN1CCC2(CC1)CC2CNc1ccc(-c2cn(C)nc2C)nn1 (stereo not shown) , which is 5.80

Kindly note the recorded Emin (rat M4) for Cc1nn(C)cc1-c1cnc(NCC2CC23CCN(CC(C)C(C)(C)C)CC3)cn1 (stereo not shown) , which is 4.67

Kindly note the recorded Emin (rat M4) for Cc1nn(C)cc1-c1ccc(NCC2CC23CCN(CCC(C)(C)C)CC3)nc1 (stereo not shown) , which is 3.97

Kindly note the recorded Emin (rat M4) for Cc1cccnc1CN1CCC2(CC1)CC2CNc1ccc(-c2cn(C)nc2C)nn1 (stereo not shown) , which is 19.9

Kindly note the recorded Emin (rat M4) for CC(C)(C)CCN1CCC2(CC1)CC2CNc1ccc(C2=CCCC2)nn1 (stereo not shown) , which is 5

Kindly note the recorded Emin (rat M4) for CC(C)(C)CCN1CCC2(CC1)CC2CNc1ccc(-c2ccc(F)cc2F)nn1 (stereo not shown) , which is 2.59

Kindly note the recorded Emin (rat M4) for Cc1cnn(C)c1-c1ccc(NCC2CC23CCN(CC2CCOCC2)CC3)nn1 (stereo not shown) , which is 29.9

Kindly note the recorded Emin (rat M4) for Fc1ccc(Cl)c(-c2ccc(NC[C@@H]3CC34CCN(CC3CC5C=CC3C5)CC4)nn2)c1 (stereo partly shown) , which is 3

Kindly note the recorded Emin (rat M4) for CC(C)(C)CCN1CCC2(CC1)CC2CNc1ccc(-c2ccccc2F)nn1 (stereo not shown) , which is 3.40

Kindly note the recorded Emin (rat M4) for CC(C)(C)CCN1CCC2(CC1)CC2CNc1ccc(-c2ccccc2)nn1 (stereo not shown) , which is 2.88

Kindly note the recorded Emin (rat M4) for Fc1ccc(Cl)c(-c2ccc(NCC3CC34CCN(CC35CC6CC(CC(C6)C3)C5)CC4)nn2)c1 (stereo not shown) , which is 3.13

Kindly note the recorded Emin (rat M4) for CC(C)(C)CCN1CCC2(CC1)CC2CNc1ccc(Cl)nn1 (stereo not shown) , which is 5.14

Kindly note the recorded Emin (rat M4) for Cc1nn(C)cc1-c1cnc(NCC2CC23CCN(CC2CC4C=CC2C4)CC3)cn1 (stereo not shown) , which is 4.56

Kindly note the recorded Emin (rat M4) for CC(C)(C)CCN1CCC2(CC1)CC2CNc1ccc(-c2cc(F)ccc2Cl)nn1 (stereo not shown) , which is 2.82

Kindly note the recorded Emin (rat M4) for CC(CN1CCC2(CC1)CC2C(=O)Nc1ccc(-c2cc(F)ccc2Cl)nn1)C(C)(C)C (stereo not shown) , which is 34.9

Kindly note the recorded Emin (rat M4) for Fc1ccc(Cl)c(-c2ccc(NCC3CC34CCN(Cc3ncccc3C(F)(F)F)CC4)nn2)c1 (stereo not shown) , which is 2.75

Kindly note the recorded Emin (rat M4) for CC(C)(C)CCN1CCC2(CC1)CC2CNc1ccc(-c2ccc(F)c(F)c2)nn1 (stereo not shown) , which is 2.80

Kindly note the recorded Emin (rat M4) for Cc1nn(C)cc1-c1ccc(NCC2CC23CCN(CC(C)C(C)(C)C)CC3)nn1 (stereo not shown) , which is 3.57

Kindly note the recorded Emin (rat M4) for CC(C)(C)CCN1CCC2(CC1)CC2CNc1ccc(-c2cc(F)ccc2F)nn1 (stereo not shown) , which is 3.26

Kindly note the recorded Emin (rat M4) for c1cc(N2CCOCC2)nnc1NCC1CC12CCN(CC13CC4CC(CC(C4)C1)C3)CC2 (stereo not shown) , which is 3

Kindly note the recorded Emin (rat M4) for Cc1noc(C)c1-c1ccc(NCC2CC23CCN(CCC(C)(C)C)CC3)nn1 (stereo not shown) , which is 4.23

Kindly note the recorded Emin (rat M4) for Cc1nn(C)cc1-c1ccc(NCC2CC23CCN(CC2CC2)CC3)nn1 (stereo not shown) , which is 45.7

* * *

system_name: Human M4 (Homo sapiens)
Sequence (P08173 1-479): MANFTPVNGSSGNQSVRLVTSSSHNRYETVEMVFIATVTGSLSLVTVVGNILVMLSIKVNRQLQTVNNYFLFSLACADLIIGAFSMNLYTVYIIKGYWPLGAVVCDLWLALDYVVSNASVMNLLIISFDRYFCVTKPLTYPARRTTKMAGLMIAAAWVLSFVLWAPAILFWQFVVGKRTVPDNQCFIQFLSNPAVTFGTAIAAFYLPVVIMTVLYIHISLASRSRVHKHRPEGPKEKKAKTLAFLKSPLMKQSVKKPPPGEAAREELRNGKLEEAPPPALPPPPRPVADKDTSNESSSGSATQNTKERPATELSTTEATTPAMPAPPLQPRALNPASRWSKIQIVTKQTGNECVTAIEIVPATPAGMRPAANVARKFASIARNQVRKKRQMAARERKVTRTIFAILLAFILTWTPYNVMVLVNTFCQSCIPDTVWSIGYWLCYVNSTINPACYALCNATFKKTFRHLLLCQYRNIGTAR
measurement_description: mAChR M4 cell-based functional calcium flux assay (human M4/Gqi5/CHO cells)
condition_label: decrease of the response to an EC80 concentration of acetylcholine
Experimental: Human, rat, or mouse M4. cDNA, along with the chimeric G protein Gqi5, were transfected into Chinese hamster ovary (CHO-K1) cells purchased from the American Type Culture Collection using Lipofectamine2000. […] Calcium flux was measured using the Functional Drug Screening System (FDSS) 6000 or 7000 (Hamamatsu Corporation, Tokyo, Japan) as an increase in the fluorescent static ratio. […] Agonist activity was analyzed as a concentration-dependent increase in calcium mobilization upon compound addition. […]
pIC50: −log10 of the molar value.
# label = YES if pIC50 >= 7 else NO

| compound | system_name | label |
| --- | --- | --- |
| Cc1cnn(C)c1-c1ccc(NC(=O)C2CC23CCN(CC(C)C(C)(C)C)CC3)nn1 (stereo not shown) [Compound 7] | Human M4 (Homo sapiens) | NO |
| CC(C)(C)CCN1CCC2(CC1)CC2CNc1ccc(-c2cc(F)ccc2C#N)nn1 (stereo not shown) [Compound 43] | Human M4 (Homo sapiens) | YES |
| CC(=O)Nc1ccc(-c2ccc(NC[C@@H]3CC34CCN(Cc3ncccc3C)CC4)nn2)cc1 [Compound 122] | Human M4 (Homo sapiens) | NO |
| Cc1nn(C)cc1-c1nnc(NCC2CC23CCN(CC2CC4C=CC2C4)CC3)c2ccccc12 (stereo not shown) [Compound 96] | Human M4 (Homo sapiens) | YES |
| CC(C)(C)CCN1CCC2(CC1)CC2CNc1ccc(-c2ccc(F)cc2F)nn1 (stereo not shown) [Compound 28] | Human M4 (Homo sapiens) | YES |
| Fc1ccc(Cl)c(-c2ccc(NCC3CC34CCN(CC(c3ccccc3)c3ccccc3)CC4)nn2)c1 (stereo not shown) [Compound 17] | Human M4 (Homo sapiens) | NO |
| Fc1ccc(Cl)c(-c2ccc(NC[C@@H]3CC34CCN(CC3CCOCC3)CC4)nn2)c1 [Compound 107] | Human M4 (Homo sapiens) | YES |
| Cc1nn(C)cc1-c1ccc(NCC2CC23CCN(Cc2ccccc2)CC3)nn1 (stereo not shown) [Compound 58] | Human M4 (Homo sapiens) | NO |

Form field: pIC50 at least 7? Entry: CC(C)(C)CCN1CCC2(CC1)CC2CNc1ccc(N2CCC(F)(F)CC2)nn1 (stereo not shown) [Compound 80] YES

Form field: pIC50 at least 7? Entry: CC(C)(C)CCN1CCC2(CC1)CC2CNc1ccc(N2CCC(F)(F)C2)nn1 (stereo not shown) [Compound 75] YES

Form field: pIC50 at least 7? Entry: Cc1nn(C)cc1-c1ccc(NCC2CC23CCN(Cc2ncccc2C(F)(F)F)CC3)nn1 (stereo not shown) [Compound 63] NO

Form field: pIC50 at least 7? Entry: CC(C)(C)CCN1CCC2(CC1)CC2CNc1ccc(-c2cccc(F)c2Cl)nn1 (stereo not shown) [Compound 41] YES

Form field: pIC50 at least 7? Entry: Cc1cnn(C)c1-c1ccc(NC(=O)C2CC23CCN(CC2CC4C=CC2C4)CC3)nn1 (stereo not shown) [Compound 8] NO

Form field: pIC50 at least 7? Entry: CCCN1CCC2(CC1)CC2CNc1ccc(-c2cn(C)nc2C)nn1 (stereo not shown) [Compound 54] NO
